- assayed.target: Suppressor of tumorigenicity 14 protein (Homo sapiens, UniProt Q9Y5Y6)
- Sequence (Q9Y5Y6 whole entry): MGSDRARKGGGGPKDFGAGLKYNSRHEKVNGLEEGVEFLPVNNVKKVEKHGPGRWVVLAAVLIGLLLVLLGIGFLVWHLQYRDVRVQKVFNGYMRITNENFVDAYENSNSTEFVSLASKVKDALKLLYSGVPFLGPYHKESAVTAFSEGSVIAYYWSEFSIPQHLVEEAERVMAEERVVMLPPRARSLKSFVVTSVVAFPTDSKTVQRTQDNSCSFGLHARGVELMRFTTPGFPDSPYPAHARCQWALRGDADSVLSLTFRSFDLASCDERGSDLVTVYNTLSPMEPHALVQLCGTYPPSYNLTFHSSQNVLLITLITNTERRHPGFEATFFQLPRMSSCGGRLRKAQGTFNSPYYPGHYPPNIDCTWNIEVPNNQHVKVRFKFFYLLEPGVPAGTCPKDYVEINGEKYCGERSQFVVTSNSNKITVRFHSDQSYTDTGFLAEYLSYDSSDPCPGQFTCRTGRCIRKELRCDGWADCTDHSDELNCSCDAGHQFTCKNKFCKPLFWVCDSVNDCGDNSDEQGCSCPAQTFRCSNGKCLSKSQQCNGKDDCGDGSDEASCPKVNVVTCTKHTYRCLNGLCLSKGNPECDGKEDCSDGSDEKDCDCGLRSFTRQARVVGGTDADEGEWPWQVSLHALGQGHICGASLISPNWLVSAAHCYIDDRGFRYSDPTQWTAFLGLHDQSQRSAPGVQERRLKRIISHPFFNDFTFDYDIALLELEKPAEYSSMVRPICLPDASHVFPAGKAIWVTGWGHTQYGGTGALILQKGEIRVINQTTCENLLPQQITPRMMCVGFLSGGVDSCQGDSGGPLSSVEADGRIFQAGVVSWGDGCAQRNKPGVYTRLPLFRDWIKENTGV
- procedure.details: Inhibition of acid-induced matriptase activation in human 184A1N4 cells using mAb M69 by cell-based ELISA like assay
experimental.readout: IC50 (µM)

Some compounds with recorded IC50:
Cc1nc(N2C(=O)C(O)=C(C(=O)c3ccccc3)C2c2cccs2)sc1C (centres undefined) : 21.8
Cc1nc(N2C(=O)C(O)=C(C(=O)c3cccs3)C2c2ccccc2)sc1C (centres undefined) : 7

1: O=C(C1=C(O)C(=O)N(c2nccs2)C1c1cccs1)c1cccs1 (centres undefined)
2: Cc1nc(N2C(=O)C(O)=C(C(=O)c3cccs3)C2c2cccs2)sc1C (centres undefined)
# returns the entry with the larger IC50; inputs 1 and 2 Refer to your chosen item by its label in the answer.
1
